Entries with their measured Kd, system 5'-AMP-activated protein kinase catalytic subunit alpha-1 (Homo sapiens, UniProt Q13131):
Active and inactive are the calls of the source.

Some entries whose results are on file:
CN1N=C(N)c2cn([C@@H]3O[C@H](COP(=O)(O)O)[C@@H](O)[C@H]3O)c3ncnc1c23 [TRICIRIBINE PHOSPHATE] :: > 30 µM (inactive)
Cn1cc(-c2ccc3nnc(C(F)(F)c4ccc5ncccc5c4)n3n2)cn1 :: > 30 µM (inactive)
CO[C@H]1C[C@@H]2CC[C@@H](C)[C@@](O)(O2)C(=O)C(=O)N2CCCC[C@H]2C(=O)O[C@H]([C@H](C)C[C@@H]2CC[C@@H](OCCO)[C@H](OC)C2)CC(=O)[C@H](C)/C=C(\C)[C@@H](O)[C@@H](OC)C(=O)[C@H](C)C[C@H](C)/C=C/C=C/C=C/1C :: > 30 µM (inactive)
CNC(=O)CN1CCC(Oc2cc3c(Nc4cccc(Cl)c4F)ncnc3cc2OC)CC1 :: > 30 µM (inactive)
CNC(=O)c1ccc(-c2cnc3ncc(Cc4ccc5ncccc5c4)n3n2)cc1F :: > 30 µM (inactive)

// switching to the query compound
[in] Query (compound): COC(=O)[C@@]1(O)C[C@H]2O[C@]1(C)n1c3ccccc3c3c4c(c5c6ccccc6n2c5c31)C(=O)NC4 [K-252A] ; field requested: Kd
[out] 0.461 µM (active)

###

Answer each item with its documented Kd.
Target: UniProt O60313
Sequence (O60313 whole entry): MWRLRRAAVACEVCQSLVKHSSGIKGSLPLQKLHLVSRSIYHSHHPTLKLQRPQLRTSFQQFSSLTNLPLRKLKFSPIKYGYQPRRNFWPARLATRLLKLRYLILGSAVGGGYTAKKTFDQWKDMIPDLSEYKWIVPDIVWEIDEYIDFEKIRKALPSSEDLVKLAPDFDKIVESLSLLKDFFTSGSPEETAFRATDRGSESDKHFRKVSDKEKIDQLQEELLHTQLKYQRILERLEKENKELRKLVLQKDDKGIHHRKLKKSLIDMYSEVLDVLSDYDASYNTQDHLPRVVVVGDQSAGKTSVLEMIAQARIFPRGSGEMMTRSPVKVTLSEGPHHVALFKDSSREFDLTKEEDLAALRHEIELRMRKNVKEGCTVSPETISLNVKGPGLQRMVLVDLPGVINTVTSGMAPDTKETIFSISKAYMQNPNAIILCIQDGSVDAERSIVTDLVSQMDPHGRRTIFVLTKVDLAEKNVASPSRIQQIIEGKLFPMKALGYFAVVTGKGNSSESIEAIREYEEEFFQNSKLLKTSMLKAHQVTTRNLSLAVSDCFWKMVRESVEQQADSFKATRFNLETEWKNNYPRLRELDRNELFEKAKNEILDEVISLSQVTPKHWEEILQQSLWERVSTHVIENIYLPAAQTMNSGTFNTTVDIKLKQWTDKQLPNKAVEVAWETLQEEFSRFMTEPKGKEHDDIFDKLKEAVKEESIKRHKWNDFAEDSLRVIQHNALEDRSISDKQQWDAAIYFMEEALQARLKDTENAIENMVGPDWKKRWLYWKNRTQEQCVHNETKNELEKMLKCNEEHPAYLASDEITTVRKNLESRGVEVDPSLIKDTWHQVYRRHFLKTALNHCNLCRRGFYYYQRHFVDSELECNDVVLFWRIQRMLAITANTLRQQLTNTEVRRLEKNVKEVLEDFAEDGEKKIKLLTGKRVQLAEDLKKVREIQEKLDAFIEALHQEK
Activity calls are given as the source filed them.

# annotated cases, reported Kd shown
CNC(=O)CN1CCC(Oc2cc3c(Nc4cccc(Cl)c4F)ncnc3cc2OC)CC1 :: > 30 µM (inactive)
Cc1ccc(NC(=O)c2ccc(CN3CC[C@H](N(C)C)C3)c(C(F)(F)F)c2)cc1Nc1nccc(-c2cncnc2)n1 :: > 30 µM (inactive)
O=c1sn(-c2cccc3ccccc23)c(=O)n1Cc1ccccc1 :: > 30 µM (inactive)
Cn1cc(-c2ccc3nnc(C(F)(F)c4ccc5ncccc5c4)n3n2)cn1 :: > 30 µM (inactive)

// each molecule listed below needs its Kd
1. COc1cc(CCc2cc(NC(=O)c3ccc(N4C[C@@H](C)N[C@@H](C)C4)cc3)n[nH]2)cc(OC)c1
2. CNC(=O)c1ccc(C)c(-n2c(C)cc(OCc3ccc(F)cc3F)c(Br)c2=O)c1
3. O=C1NC(=O)/C(=C/c2ccc3nccc(-c4ccncc4)c3c2)S1
4. Nc1nc(N)c2nc(-c3cccc(O)c3)c(-c3cccc(O)c3)nc2n1

[out]
> 30 µM (inactive)
> 30 µM (inactive)
> 30 µM (inactive)
> 30 µM (inactive)

###

Biological target: Serine/threonine-protein kinase N1 (Homo sapiens, UniProt Q16512); also: in the data inactive means no Kd found up to 30 µM
Sequence (Q16512 whole entry): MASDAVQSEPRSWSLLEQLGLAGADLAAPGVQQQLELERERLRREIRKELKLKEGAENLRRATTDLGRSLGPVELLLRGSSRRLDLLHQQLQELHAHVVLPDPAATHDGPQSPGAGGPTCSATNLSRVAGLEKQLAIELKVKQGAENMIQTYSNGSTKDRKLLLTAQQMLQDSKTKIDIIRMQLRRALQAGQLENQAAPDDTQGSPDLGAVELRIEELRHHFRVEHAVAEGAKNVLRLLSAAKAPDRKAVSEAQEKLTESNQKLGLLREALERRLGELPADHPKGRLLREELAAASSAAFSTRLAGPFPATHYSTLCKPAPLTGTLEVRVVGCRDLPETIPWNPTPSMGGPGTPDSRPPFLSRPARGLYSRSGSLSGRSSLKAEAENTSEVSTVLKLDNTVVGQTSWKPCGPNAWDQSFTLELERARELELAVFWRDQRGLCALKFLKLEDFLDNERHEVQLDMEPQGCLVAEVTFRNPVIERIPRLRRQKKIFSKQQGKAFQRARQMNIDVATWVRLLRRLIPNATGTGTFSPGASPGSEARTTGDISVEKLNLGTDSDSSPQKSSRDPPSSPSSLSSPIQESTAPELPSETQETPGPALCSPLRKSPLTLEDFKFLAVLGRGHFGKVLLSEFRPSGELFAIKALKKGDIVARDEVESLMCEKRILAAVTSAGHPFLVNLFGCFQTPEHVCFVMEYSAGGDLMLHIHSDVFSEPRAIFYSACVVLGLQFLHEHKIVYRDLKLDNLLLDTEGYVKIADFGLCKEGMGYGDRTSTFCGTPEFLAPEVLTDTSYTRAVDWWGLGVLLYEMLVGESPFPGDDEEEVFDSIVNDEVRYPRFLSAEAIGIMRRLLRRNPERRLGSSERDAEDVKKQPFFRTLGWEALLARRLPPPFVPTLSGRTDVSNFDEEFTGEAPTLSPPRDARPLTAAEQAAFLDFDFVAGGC
Calls of active or inactive are those of the source.
Result category, one only: TRUE (active), FALSE (inactive)

For orientation, consider the following solved cases.
Cn1ncc(Cl)c1-c1cc(C(=O)N[C@H](CN)Cc2cccc(F)c2)sc1Cl :: TRUE
Cc1cc(Nc2cc(N3CCN(C)CC3)nc(/C=C/c3ccccc3)n2)n[nH]1 :: FALSE
Cc1ccc(-n2nc(C(C)(C)C)cc2NC(=O)NCc2cc(F)ccc2Oc2ccc3c(cnn3CCO)c2)cc1 :: FALSE

// next entry
[in] For C1=C/COCc2cc(ccc2OCCN2CCCC2)Nc2nccc(n2)-c2cccc(c2)COC/1 , what call appears in the results of this test?
[out] FALSE

###

Target: Ephrin type-B receptor 2 (Homo sapiens); also: in the data inactive means no Kd found up to 30 µM
Sequence (P29323 whole entry): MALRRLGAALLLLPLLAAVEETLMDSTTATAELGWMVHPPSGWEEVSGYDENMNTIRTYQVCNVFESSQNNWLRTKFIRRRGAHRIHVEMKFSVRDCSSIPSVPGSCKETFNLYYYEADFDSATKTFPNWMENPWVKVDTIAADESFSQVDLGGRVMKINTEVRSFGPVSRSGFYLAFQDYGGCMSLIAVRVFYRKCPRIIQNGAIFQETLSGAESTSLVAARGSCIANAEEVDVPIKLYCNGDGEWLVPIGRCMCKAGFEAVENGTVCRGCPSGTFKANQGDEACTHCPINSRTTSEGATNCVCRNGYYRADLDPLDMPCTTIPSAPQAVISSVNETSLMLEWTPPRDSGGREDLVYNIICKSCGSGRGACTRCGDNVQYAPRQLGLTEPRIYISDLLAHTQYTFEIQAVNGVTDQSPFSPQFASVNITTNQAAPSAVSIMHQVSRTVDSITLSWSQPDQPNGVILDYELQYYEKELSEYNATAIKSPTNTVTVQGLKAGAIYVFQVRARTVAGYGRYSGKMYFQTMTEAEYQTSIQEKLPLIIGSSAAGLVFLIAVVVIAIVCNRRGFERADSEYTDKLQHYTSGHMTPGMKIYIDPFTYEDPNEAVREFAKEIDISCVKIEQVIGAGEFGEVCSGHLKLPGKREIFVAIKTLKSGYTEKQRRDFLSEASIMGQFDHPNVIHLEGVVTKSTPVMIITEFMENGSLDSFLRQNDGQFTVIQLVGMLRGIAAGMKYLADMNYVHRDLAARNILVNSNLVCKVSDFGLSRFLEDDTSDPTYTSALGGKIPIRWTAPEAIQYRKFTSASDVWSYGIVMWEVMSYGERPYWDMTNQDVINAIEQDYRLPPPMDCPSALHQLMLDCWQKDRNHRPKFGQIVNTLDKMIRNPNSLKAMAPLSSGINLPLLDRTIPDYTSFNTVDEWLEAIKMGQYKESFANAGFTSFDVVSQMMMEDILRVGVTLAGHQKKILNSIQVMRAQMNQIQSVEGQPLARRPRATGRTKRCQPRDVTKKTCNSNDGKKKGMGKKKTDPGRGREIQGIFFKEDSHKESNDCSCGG
Calls of active or inactive are those of the source.
Give one outcome, nothing more. List: 1 for active, -1 for inactive

Illustrative cases are given below, each with its answer.
C=CC(=O)N1CCC(Oc2cc3c(Nc4ccc(Cl)c(Cl)c4F)ncnc3cc2OC)CC1 [POZIOTINIB] :: 1
COc1cc2nccc(Oc3ccc(NC(=O)NC4CC4)c(Cl)c3)c2cc1C(N)=O [LENVATINIB] :: -1
CNC(=O)c1ccc(C)c(-n2c(C)cc(OCc3ccc(F)cc3F)c(Br)c2=O)c1 [PH-797804] :: -1

# next molecule below
[in] What call does the record list for Cc1cc([C@@H](C)Nc2ccccc2C(=O)O)c2nc(N3CCOCC3)cc(=O)n2c1 [AZD-6482] ?
[out] -1

###

Target: Serine/threonine-protein kinase A-Raf (Homo sapiens); also: in the data inactive means no Kd found up to 30 µM
Sequence (P10398 whole entry): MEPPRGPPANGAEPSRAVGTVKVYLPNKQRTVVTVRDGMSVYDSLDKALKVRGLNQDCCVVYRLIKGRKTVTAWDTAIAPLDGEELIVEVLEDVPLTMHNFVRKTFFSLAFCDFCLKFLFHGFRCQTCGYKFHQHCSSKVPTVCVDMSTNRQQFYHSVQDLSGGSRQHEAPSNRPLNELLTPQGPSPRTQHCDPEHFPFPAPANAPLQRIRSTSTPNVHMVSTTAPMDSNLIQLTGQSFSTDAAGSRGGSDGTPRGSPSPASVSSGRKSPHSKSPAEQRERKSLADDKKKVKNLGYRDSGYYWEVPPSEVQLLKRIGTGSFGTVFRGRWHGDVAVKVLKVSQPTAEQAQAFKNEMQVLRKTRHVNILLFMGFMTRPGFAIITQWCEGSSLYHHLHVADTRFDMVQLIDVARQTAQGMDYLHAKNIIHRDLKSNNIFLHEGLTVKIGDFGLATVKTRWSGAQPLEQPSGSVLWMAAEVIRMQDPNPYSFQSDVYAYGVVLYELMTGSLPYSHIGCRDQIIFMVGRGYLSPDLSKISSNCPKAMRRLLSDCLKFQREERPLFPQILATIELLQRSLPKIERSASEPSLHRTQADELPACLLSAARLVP
Activity calls are given as the source filed them.
Mark one answer only. Choices: t = active, f = inactive

// known answers, use as guide
CN1CCC(CNc2ccc3ncc(-c4cccc(OC(F)(F)F)c4)n3n2)CC1 :: f
Cn1cc(-c2ccc(F)c(C(F)(F)F)c2)nc1C1CCN(c2ncnc3[nH]ncc23)CC1 :: f
C=CC(=O)N1CCC(Oc2cc3c(Nc4ccc(Cl)c(Cl)c4F)ncnc3cc2OC)CC1 :: f
Cc1cn(-c2cc(NC(=O)c3ccc(C)c(Nc4nccc(-c5cccnc5)n4)c3)cc(C(F)(F)F)c2)cn1 :: f
CC(C)Nc1cc(-c2c[nH]c(C(=O)N[C@H](CO)c3cccc(Cl)c3)c2)c(Cl)cn1 :: f

[in] Would you mind telling me which call this test gave Cc1ccc(NC(=O)c2ccc(CN3CC[C@H](N(C)C)C3)c(C(F)(F)F)c2)cc1Nc1nccc(-c2cncnc2)n1 ?
[out] t

[in] Check OCCn1cc(-c2cnc3nnn(Cc4ccc5ncccc5c4)c3n2)cn1 too.
[out] f

[in] Then COc1cc(CCc2cc(NC(=O)c3ccc(N4C[C@@H](C)N[C@@H](C)C4)cc3)n[nH]2)cc(OC)c1 ?
[out] f

###

Molecular target: Discoidin domain-containing receptor 2 (Homo sapiens); also: in the data inactive means no Kd found up to 30 µM
Sequence (Q16832 whole entry): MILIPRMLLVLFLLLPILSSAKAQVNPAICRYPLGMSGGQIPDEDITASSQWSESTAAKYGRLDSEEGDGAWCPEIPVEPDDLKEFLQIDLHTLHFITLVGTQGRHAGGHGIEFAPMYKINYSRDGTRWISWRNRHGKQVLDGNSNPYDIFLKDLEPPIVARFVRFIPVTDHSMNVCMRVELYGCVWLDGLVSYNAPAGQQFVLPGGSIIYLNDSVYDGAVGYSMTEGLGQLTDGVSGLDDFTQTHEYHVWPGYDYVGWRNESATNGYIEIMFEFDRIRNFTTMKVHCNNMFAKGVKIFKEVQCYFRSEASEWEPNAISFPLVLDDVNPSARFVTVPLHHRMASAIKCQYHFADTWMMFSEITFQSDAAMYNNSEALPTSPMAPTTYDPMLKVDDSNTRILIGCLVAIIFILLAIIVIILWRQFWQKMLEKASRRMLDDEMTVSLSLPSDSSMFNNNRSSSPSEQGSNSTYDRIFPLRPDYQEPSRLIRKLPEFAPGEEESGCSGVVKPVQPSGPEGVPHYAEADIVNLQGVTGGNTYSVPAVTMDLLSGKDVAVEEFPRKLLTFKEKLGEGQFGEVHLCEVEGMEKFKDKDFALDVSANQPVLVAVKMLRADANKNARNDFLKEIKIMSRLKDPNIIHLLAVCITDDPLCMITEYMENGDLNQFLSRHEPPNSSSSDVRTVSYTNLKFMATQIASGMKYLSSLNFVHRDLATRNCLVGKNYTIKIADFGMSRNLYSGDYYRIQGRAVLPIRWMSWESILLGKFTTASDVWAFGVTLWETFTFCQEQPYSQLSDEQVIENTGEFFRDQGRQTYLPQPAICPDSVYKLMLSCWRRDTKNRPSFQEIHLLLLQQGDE
Calls of active or inactive are those of the source.
Log the outcome using a class from active, inactive

COc1cc(N2CCC(N3CCN(C)CC3)CC2)ccc1Nc1ncnc(Nc2ccccc2S(=O)(=O)C(C)C)n1 :: inactive
CC[C@@H]1C(=O)N(C)c2cnc(Nc3ccc(C(=O)N[C@H]4CC[C@H](N5CCN(CC6CC6)CC5)CC4)cc3OC)nc2N1C(C)C :: inactive
C[C@@H](c1ccc2nccn2c1)n1nnc2ncc(-c3cnn(C)c3)nc21 :: inactive

[in] Lab log entry: C=CC(=O)N1CCC(Oc2cc3c(Nc4ccc(Cl)c(Cl)c4F)ncnc3cc2OC)CC1 — outcome as called in the assay?
[out] inactive

[in] Input COc1cc2nccc(Oc3ccc(NC(=O)Nc4cc(C)on4)c(Cl)c3)c2cc1OC
[out] active

[in] # repeat for C1=C/COCc2cc(ccc2OCCN2CCCC2)Nc2nccc(n2)-c2cccc(c2)COC/1
[out] inactive

[in] For CNC(=O)c1ccc(C)c(-n2c(C)cc(OCc3ccc(F)cc3F)c(Br)c2=O)c1 then?
[out] inactive

[in] Next molecule up: CCS(=O)(=O)N1CC(CC#N)(n2cc(-c3ncnc4[nH]ccc34)cn2)C1
[out] inactive

[in] Thanks! And N[C@@H]1CCCN(c2c(/C=C3\SC(=O)NC3=O)cccc2-c2ccccc2)C1 ?
[out] inactive

[in] Please give the result for OCCn1cc(-c2cnc3nnn(Cc4ccc5ncccc5c4)c3n2)cn1 too.
[out] inactive

[in] Try Cn1ncc(Cl)c1-c1cc(C(=O)N[C@H](CN)Cc2cccc(F)c2)sc1Cl next.
[out] inactive

[in] # iterate: O=c1sn(-c2cccc3ccccc23)c(=O)n1Cc1ccccc1
[out] inactive

[in] Same question for CN1CC[C@@H](c2c(O)cc(O)c3c(=O)cc(-c4ccccc4Cl)oc23)[C@@H]1CO please.
[out] inactive

[in] Ok, now C[C@@H](Nc1cc(F)cc(F)c1)c1cc(C(=O)N(C)C)cc2c(=O)cc(N3CCOCC3)oc12
[out] inactive

[in] Try COCCNCc1ccc(-c2cc3nccc(Oc4ccc(NC(=S)NC(=O)Cc5ccc(F)cc5)cc4F)c3s2)nc1 next.
[out] active

[in] And for Cc1c(F)cc(C(=O)NC2CC2)cc1-c1ccc(C(=O)NCC(C)(C)C)cn1 ?
[out] inactive

[in] Thanks! And CCCS(=O)(=O)Nc1ccc(F)c(C(=O)c2c[nH]c3ncc(-c4ccc(Cl)cc4)cc23)c1F ?
[out] inactive

[in] Repeat for the following molecule: O=C(Nc1ccc(-c2ccnc(Nc3ccc(N4CCOCC4)cc3)n2)cc1)C1CCCN1 (configuration not stated)
[out] inactive

[in] What about this molecule? Cc1nc(N)sc1-c1ccnc(Nc2ccc(N3CCOCC3)cc2)n1
[out] inactive

[in] Query COC(=O)N[C@@H](C)CNc1nccc(-c2cn(C(C)C)nc2-c2cc(Cl)cc(NS(C)(=O)=O)c2F)n1 next
[out] inactive

[in] What about this molecule? Cc1cc([C@@H](C)Nc2ccccc2C(=O)O)c2nc(N3CCOCC3)cc(=O)n2c1
[out] inactive

[in] Try C[C@@H]1CN(Cc2ccc(F)cc2)[C@@H](C)CN1C(=O)c1cc2c(C(=O)C(=O)N(C)C)cn(C)c2cc1Cl next.
[out] inactive

[in] One more molecule: COc1cc(CCc2cc(NC(=O)c3ccc(N4C[C@@H](C)N[C@@H](C)C4)cc3)n[nH]2)cc(OC)c1
[out] active

[in] Try this molecule next: CNS(=O)(=O)Nc1nccc(Cc2c(C)c3ccc(Oc4ncccn4)cc3oc2=O)c1F
[out] inactive

[in] Another molecule to check: COC(=O)[C@@]1(O)C[C@H]2O[C@]1(C)n1c3ccccc3c3c4c(c5c6ccccc6n2c5c31)C(=O)NC4 [K-252A]
[out] inactive

[in] Thanks! And CNC(=O)c1cc(Oc2ccc(NC(=O)Nc3ccc(Cl)c(C(F)(F)F)c3)c(F)c2)ccn1 ?
[out] active

Source listed as ChEMBL document CHEMBL3991601.
